- SYSTEM_TESTED: HDAC4 (Homo sapiens, UniProt P56524)
- Sequence (P56524 whole entry): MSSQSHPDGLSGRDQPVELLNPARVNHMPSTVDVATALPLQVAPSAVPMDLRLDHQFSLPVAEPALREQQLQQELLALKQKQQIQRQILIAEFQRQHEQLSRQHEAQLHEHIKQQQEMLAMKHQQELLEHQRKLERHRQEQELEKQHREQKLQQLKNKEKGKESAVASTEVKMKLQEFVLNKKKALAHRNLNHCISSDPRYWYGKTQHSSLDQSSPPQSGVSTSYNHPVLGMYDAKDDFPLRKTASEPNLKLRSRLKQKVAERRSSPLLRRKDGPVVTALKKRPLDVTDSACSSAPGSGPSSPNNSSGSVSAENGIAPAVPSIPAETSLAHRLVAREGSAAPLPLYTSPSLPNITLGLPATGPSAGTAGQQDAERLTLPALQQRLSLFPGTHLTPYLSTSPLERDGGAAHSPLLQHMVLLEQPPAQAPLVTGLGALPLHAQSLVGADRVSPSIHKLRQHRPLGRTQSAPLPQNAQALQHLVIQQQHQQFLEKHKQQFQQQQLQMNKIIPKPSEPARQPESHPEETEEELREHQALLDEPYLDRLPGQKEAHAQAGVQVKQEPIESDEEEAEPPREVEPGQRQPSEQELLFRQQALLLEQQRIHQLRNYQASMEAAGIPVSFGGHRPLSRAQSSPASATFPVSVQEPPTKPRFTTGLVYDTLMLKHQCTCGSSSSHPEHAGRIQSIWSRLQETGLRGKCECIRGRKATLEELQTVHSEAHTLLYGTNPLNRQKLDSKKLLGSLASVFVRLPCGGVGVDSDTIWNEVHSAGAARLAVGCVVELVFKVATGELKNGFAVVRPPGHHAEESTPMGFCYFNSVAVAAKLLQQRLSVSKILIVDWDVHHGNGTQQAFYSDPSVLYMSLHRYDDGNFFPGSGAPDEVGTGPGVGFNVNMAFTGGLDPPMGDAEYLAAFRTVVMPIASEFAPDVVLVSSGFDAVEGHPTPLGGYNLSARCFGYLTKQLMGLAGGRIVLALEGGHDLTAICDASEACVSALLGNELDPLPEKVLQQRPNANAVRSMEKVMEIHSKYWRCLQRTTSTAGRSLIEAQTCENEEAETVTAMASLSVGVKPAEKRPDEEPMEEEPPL
- ASSAY_TEXT: Inhibition of individual recombinant KDACs
pIC50: −log10 of the molar value.
METRIC: pIC50

Task item: Name the reported pIC50 value associated with the compound C=C(CN1CCN(c2cccc(C(F)(F)F)n2)CC1)c1ccc(C(=O)Nc2ccccc2N)cc1 [Compound 7]
Reply: < 5.00

====

- System: SNB-19
- ASSAY_TEXT: NCI-60 cytotoxicity screen
- Type: cell-based
- DETAILS: Homo sapiens, NCI-60, 48 h, CNS
Hi there, I'd appreciate the recorded IC50 for every entry that follows.
Answers are plain numbers, in µM.

Consider the worked cases shown below.
* C=C(CN1CCN(c2cccc(C(F)(F)F)c2)CC1)c1ccc(C(=O)Nc2ccccc2N)cc1 | 4.1
* C=C(CN1CCN(c2ccccc2C(F)(F)F)CC1)c1ccc(C(=O)Nc2ccccc2N)cc1 | 24.4
* C=C(CN1CCN(c2ccc(C(F)(F)F)cc2)CC1)c1ccc(C(=O)Nc2ccccc2N)cc1 | 12.6
* C=C(CN1CCN(c2ccccn2)CC1)c1ccc(C(=O)Nc2ccccc2N)cc1 | 4.86
* C=C(CN1CCN(c2cccc(C(F)(F)F)n2)CC1)c1ccc(C(=O)Nc2ccccc2N)cc1 | 0.65

Turning now to a further record.
Task item: Give its IC50 value. Item: Nc1ccccc1NC(=O)c1ccc(CNC(=O)OCc2cccnc2)cc1 [Compound 1, Entinostat, reference compound]
Reply: 6.34
